Listing: protein stability index of selected variants
B1: NETO1 (parent)
chain: GFSPIIGRFCGQQNPPVIKSSGRF

Variants of: B1
Assay: protein stability index of a GFP-peptide fusion (GPS, HEK-293T) (PSI 1-6); higher = more stable;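 also: lentivirally expressed fusions sorted by FACS into six bins by GFP to DsRed ratio, PSI derived from sequencing read proportions per bin multiplied by bin number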
Settings: c terminus: a fixed tail appended
Simply state the number, no unit and no words.

Field: example entries. Status: answers known.
- change: "G22V"
  protein stability index: 1.63
- change: "N14R"
  protein stability index: 2.12
- change: "I5S"
  protein stability index: 2.62
- change: "C10T"
  protein stability index: 3.29
- change: "P4M"
  protein stability index: 2.36
- change: "G11S"
  protein stability index: 2.38

Now for the variant whose protein stability index we want.
Data request: May I ask what protein stability index has been recorded for S20Y ?
Data returned: 1.43
